- assay-setup: in n-butanol, 290.15 K
outcome-measure: solubility (mole fraction)
// print number alone

**Query** Supply measured solubility (mole fraction) of CC(C)(C)OC(=O)N[C@@H](CC(=O)O)Cc1cc(F)c(F)cc1F in your reply.
**Result** 0.0353

---

- assay-setup: in ethyl acetate, 290.15 K
outcome-measure: solubility (mole fraction)
// print number alone

**Query** Supply measured solubility (mole fraction) of CC(C)(C)OC(=O)N[C@@H](CC(=O)O)Cc1cc(F)c(F)cc1F in your reply.
**Result** 0.0556

---

- assay-setup: in n-propanol, 310.15 K
outcome-measure: solubility (mole fraction)
// print number alone

**Query** Supply measured solubility (mole fraction) of CC(C)(C)OC(=O)N[C@@H](CC(=O)O)Cc1cc(F)c(F)cc1F in your reply.
**Result** 0.0847

---

- assay-setup: in n-butanol, 315.15 K
outcome-measure: solubility (mole fraction)
// print number alone

**Query** Supply measured solubility (mole fraction) of CC(C)(C)OC(=O)N[C@@H](CC(=O)O)Cc1cc(F)c(F)cc1F in your reply.
**Result** 0.0868

---

- assay-setup: in ethyl acetate, 280.15 K
outcome-measure: solubility (mole fraction)
// print number alone

**Query** Supply measured solubility (mole fraction) of CC(C)(C)OC(=O)N[C@@H](CC(=O)O)Cc1cc(F)c(F)cc1F in your reply.
**Result** 0.0409

---

- assay-setup: in ethanol, 285.15 K
outcome-measure: solubility (mole fraction)

**Query** Supply measured solubility (mole fraction) of CC(C)(C)OC(=O)N[C@@H](CC(=O)O)Cc1cc(F)c(F)cc1F in your reply.
**Result** 0.042

---

- assay-setup: in ethyl acetate, 330.15 K
outcome-measure: solubility (mole fraction)
// print number alone

**Query** Supply measured solubility (mole fraction) of CC(C)(C)OC(=O)N[C@@H](CC(=O)O)Cc1cc(F)c(F)cc1F in your reply.
**Result** 0.188

---

- assay-setup: in n-propanol, 305.15 K
outcome-measure: solubility (mole fraction)
// print number alone

**Query** Supply measured solubility (mole fraction) of CC(C)(C)OC(=O)N[C@@H](CC(=O)O)Cc1cc(F)c(F)cc1F in your reply.
**Result** 0.0718

---

- assay-setup: in n-propanol, 300.15 K
outcome-measure: solubility (mole fraction)

**Query** Supply measured solubility (mole fraction) of CC(C)(C)OC(=O)N[C@@H](CC(=O)O)Cc1cc(F)c(F)cc1F in your reply.
**Result** 0.0619

---

- assay-setup: in methanol, 320.15 K
outcome-measure: solubility (mole fraction)

**Query** Supply measured solubility (mole fraction) of CC(C)(C)OC(=O)N[C@@H](CC(=O)O)Cc1cc(F)c(F)cc1F in your reply.
**Result** 0.151

---

- assay-setup: in ethanol, 320.15 K
outcome-measure: solubility (mole fraction)
// print number alone

**Query** Supply measured solubility (mole fraction) of CC(C)(C)OC(=O)N[C@@H](CC(=O)O)Cc1cc(F)c(F)cc1F in your reply.
**Result** 0.125

---

- assay-setup: in methanol, 285.15 K
outcome-measure: solubility (mole fraction)
// print number alone

**Query** Supply measured solubility (mole fraction) of CC(C)(C)OC(=O)N[C@@H](CC(=O)O)Cc1cc(F)c(F)cc1F in your reply.
**Result** 0.0582
